Tested on: Streptococcus sp.
Experiment: in vitro antibacterial evaluation, MIC by broth dilution
Type: cell-based
Settings: broth dilution, 18 hours at 35° C.; strain GC 1894
Numbered stars: 1 amine (or outer) side, 2 acyl side, 3 side chain; on linkers, the order of the positions; unused ones are H or OH. Square brackets hold non-standard residues; d marks the D form. Peptide text beside a SMILES is read from it. X5 = N=C1NCC(C(O)[C@@H](N[*:1])C(=O)[*:2])N1; X4 = N=C1NCC(C(O)[C@H](N[*:1])C(=O)[*:2])N1; Cha = N[C@@H](CC1CCCCC1)C(=O)O; dCha = N[C@H](CC1CCCCC1)C(=O)O
Examples of compounds with documented MIC Streptococcus pneumoniae (GC 1894) follow.

[
  {
    "compound": "CC(c1ccccc1)C1NC(=O)CNC(=O)C(CO)NC(=O)C(C(O)C2CNC(=N)N2C2OC(CO)C(O)C(O)C2O)NC(=O)C(C(O)C2CNC(=N)N2)NC(=O)C(Cc2ccc(OC3OC(CO)C(OC4OC5COC(C67CC8CC(CC(C8)C6)C7)OC5C(O)C4O)C(O)C3O)cc2)NC1=O (stereo not drawn)",
    "MIC Streptococcus pneumoniae (GC 1894)": "<0.12 mg/L"
  },
  {
    "compound": "CC(c1ccccc1)C1NC(=O)CNC(=O)C(CO)NC(=O)C(C(O)C2CNC(=N)N2C2OC(CO)C(O)C(O)C2O)NC(=O)C(C(O)C2CNC(=N)N2)NC(=O)C(Cc2ccc(OC3OC(CO)C(OC4OC(CO)C(O)C5OC(c6ccccc6)OC45)C(O)C3O)cc2)NC1=O (single isomer, unassigned) [Example 104a]",
    "MIC Streptococcus pneumoniae (GC 1894)": "0.12 to 8 mg/L"
  },
  {
    "compound": "COc1cccc(C2OCC3OC(OC4C(CO)OC(Oc5ccc(CC6NC(=O)C(C(C)c7ccccc7)NC(=O)CNC(=O)C(CO)NC(=O)C(C(O)C7CNC(=N)N7C7OC(CO)C(O)C(O)C7O)NC(=O)C(C(O)C7CNC(=N)N7)NC6=O)cc5)C(O)C4O)C(O)C(O)C3O2)c1 (stereo not drawn)",
    "MIC Streptococcus pneumoniae (GC 1894)": "<0.06 mg/L"
  },
  {
    "compound": "CC(C)=CCCC(C)CC1OCC2OC(OC3C(CO)OC(Oc4ccc(CC5NC(=O)C(C(C)c6ccccc6)NC(=O)CNC(=O)C(CO)NC(=O)C(C(O)C6CNC(=N)N6C6OC(CO)C(O)C(O)C6O)NC(=O)C(C(O)C6CNC(=N)N6)NC5=O)cc4)C(O)C3O)C(O)C(O)C2O1 (stereo not drawn)",
    "MIC Streptococcus pneumoniae (GC 1894)": "<0.06 mg/L"
  },
  {
    "compound": "CC(c1ccccc1)C1NC(=O)CNC(=O)C(CO)NC(=O)C(C(O)C2CNC(=N)N2C2OC(CO)C(O)C(O)C2O)NC(=O)C(C(O)C2CNC(=N)N2)NC(=O)C(Cc2ccc(OC3OC(CO)C(OC4OC5COC(Cc6ccc(Cl)cc6)OC5C(O)C4O)C(O)C3O)cc2)NC1=O (stereo not drawn)",
    "MIC Streptococcus pneumoniae (GC 1894)": "<0.5 mg/L"
  },
  {
    "compound": "CC(c1ccccc1)C1NC(=O)CNC(=O)C(CO)NC(=O)C(C(O)C2CN(c3ncccn3)C(=N)N2C2OC(CO)C(O)C(O)C2O)NC(=O)C(C(O)C2CNC(=Nc3ncccn3)N2)NC(=O)C(Cc2ccc(OC3OC(CO)C(OC4OC(CO)C(O)C(O)C4O)C(O)C3O)cc2)NC1=O (stereo not drawn)",
    "MIC Streptococcus pneumoniae (GC 1894)": "128 mg/L"
  },
  {
    "compound": "COC1CCC2(C)C(CCC3C2CCC2(C)C(C(C)CCC4OCC5OC(OC6C(CO)OC(Oc7ccc(CC8NC(=O)C(C(C)c9ccccc9)NC(=O)CNC(=O)C(CO)NC(=O)C(C(O)C9CNC(=N)N9C9OC(CO)C(O)C(O)C9O)NC(=O)C(C(O)C9CNC(=N)N9)NC8=O)cc7)C(O)C6O)C(O)C(O)C5O4)CCC32)C1 (stereo not drawn)",
    "MIC Streptococcus pneumoniae (GC 1894)": "1 mg/L"
  },
  {
    "compound": "CC(c1ccccc1)C1NC(=O)CNC(=O)C(CO)NC(=O)C(C(O)C2CN(Cc3ccccc3)C(=NCc3ccccc3)N2C2OC(CO)C(O)C(O)C2O)NC(=O)C(C(O)C2CN(Cc3ccccc3)C(=NCc3ccccc3)N2Cc2ccccc2)NC(=O)C(Cc2ccc(OC3OC(CO)C(OC4OC5COC6(OC5C(O)C4O)C4CC5CC(C4)CC6C5)C(O)C3O)cc2)NC1=O (stereo not drawn)",
    "MIC Streptococcus pneumoniae (GC 1894)": "8 mg/L"
  },
  {
    "compound": "N=C1NCC(C(O)[C@@H]2NC(=O)[C@@H](CC3CCCCC3)NC(=O)[C@H](CC3CCCCC3)NC(=O)CNC(=O)[C@H](CO)NC(=O)[C@@H](C(O)C3CNC(=N)N3)NC2=O)N1 (stereo partly drawn) [Example 58] (cyclo([Cha][dCha][X4][X5]SG))",
    "MIC Streptococcus pneumoniae (GC 1894)": "8 mg/L"
  },
  {
    "compound": "CC(c1ccccc1)C1NC(=O)CNC(=O)C(CO)NC(=O)C(C(O)C2CNC(=N)N2C2OC(CO)C(O)C(O)C2O)NC(=O)C(C(O)C2CNC(=N)N2)NC(=O)C(Cc2ccc(OC3OC(CO)C(OC4OC5COC(CC67CC8CC(CC(C8)C6)C7)OC5C(O)C4O)C(O)C3O)cc2)NC1=O (stereo not drawn)",
    "MIC Streptococcus pneumoniae (GC 1894)": "<0.06 mg/L"
  },
  {
    "compound": "CN=C1N(C)CC(CC2NC(=O)C(Cc3ccc(OC4OC(CO)C(OC5OC(CO)C(O)C(O)C5O)C(O)C4O)cc3)NC(=O)C(C(C)c3ccccc3)NC(=O)CNC(=O)C(CO)NC(=O)C(CC3CN(C)C(=NC)N3C3OC(CO)C(O)C(O)C3O)NC2=O)N1C (stereo not drawn)",
    "MIC Streptococcus pneumoniae (GC 1894)": "128 mg/L"
  },
  {
    "compound": "CN=C1N(C)CC(C(O)C2NC(=O)C(Cc3ccc(OC4OC(CO)C(OC5OC(CO)C(O)C(O)C5O)C(O)C4O)cc3)NC(=O)C(C(C)c3ccccc3)NC(=O)CNC(=O)C(CO)NC(=O)C(C(O)C3CN(C)C(=NC)N3C3OC(CO)C(O)C(O)C3O)NC2=O)N1C (stereo not drawn)",
    "MIC Streptococcus pneumoniae (GC 1894)": "128 mg/L"
  },
  {
    "compound": "N=C1NCC(C(O)C2NC(=O)C(Cc3ccc(OC4OC(CO)C(OC5OC(CO)C(O)C6OC7(OC56)C5CC6CC(C5)CC7C6)C(O)C4O)cc3)NC(=O)C(CC3CCCCC3)NC(=O)CNC(=O)C(CO)NC(=O)C(C(O)C3CNC(=N)N3C3OC(CO)C(O)C(O)C3O)NC2=O)N1 (stereo not drawn) [Example 106a]",
    "MIC Streptococcus pneumoniae (GC 1894)": "<0.06 mg/L"
  },
  {
    "compound": "CC(c1ccccc1)C1NC(=O)CNC(=O)C(CO)NC(=O)C(C(O)C2CN(Cc3ccc(C(=O)O)cc3)C(=N)N2C2OC(CO)C(O)C(O)C2O)NC(=O)C(C(O)C2CNC(=N)N2)NC(=O)C(Cc2ccc(OC3OC(CO)C(OC4OC(CO)C(O)C(O)C4O)C(O)C3O)cc2)NC1=O (stereo not drawn)",
    "MIC Streptococcus pneumoniae (GC 1894)": "128 mg/L"
  },
  {
    "compound": "CCCCCCCN1CC(C(O)C2NC(=O)C(C(O)C3CNC(=N)N3)NC(=O)C(Cc3ccc(OC4OC(CO)C(OC5OC6COC7(OC6C(O)C5O)C5CC6CC(C5)CC7C6)C(O)C4O)cc3)NC(=O)C(C(C)c3ccccc3)NC(=O)CNC(=O)C(CO)NC2=O)N(C2OC(CO)C(O)C(O)C2O)C1=N (stereo not drawn)",
    "MIC Streptococcus pneumoniae (GC 1894)": "<0.12 mg/L"
  }
]

###

Test system: Enterococcus sp.
Assay: in vitro antibacterial evaluation, MIC by broth dilution
Type: cell-based
Conditions: broth dilution, inoculum 5×10^5 CFU/mL, 18 hours at 35° C.; strain GC 3059
outcome_measure: MIC Enterococcus faecalis (GC 3059)

[
  {
    "compound": "CCOc1cc(COCC2OC(OC3C(CO)OC(Oc4ccc(CC5NC(=O)C(C(C)c6ccccc6)NC(=O)CNC(=O)C(CO)NC(=O)C(C(O)C6CNC(=N)N6C6OC(CO)C(O)C(O)C6O)NC(=O)C(C(O)C6CNC(=N)N6)NC5=O)cc4)C(O)C3O)C(O)C(O)C2O)ccc1OC (stereo not shown) [Example 238]",
    "test_result": "32 µg/mL"
  },
  {
    "compound": "N=C1NCC(C(O)C2NC(=O)C(CC3CCC(OC4OC(CO)C(OC5OC6COC7(OC6C(O)C5O)C5CC6CC(C5)CC7C6)C(O)C4O)CC3)NC(=O)C(CC3CCCCC3)NC(=O)CNC(=O)C(CO)NC(=O)C(C(O)C3CNC(=N)N3C3OC(CO)C(O)C(O)C3O)NC2=O)N1 (single isomer, unassigned) [Example 223]",
    "test_result": ">64 µg/mL"
  },
  {
    "compound": "CCCOc1ccc(COCC2OC(OC3C(CO)OC(Oc4ccc(CC5NC(=O)C(C(C)c6ccccc6)NC(=O)CNC(=O)C(CO)NC(=O)C(C(O)C6CNC(=N)N6C6OC(CO)C(O)C(O)C6O)NC(=O)C(C(O)C6CNC(=N)N6)NC5=O)cc4)C(O)C3O)C(O)C(O)C2O)cc1 (stereo not shown) [Example 235]",
    "test_result": "4 to 8 µg/mL"
  },
  {
    "compound": "N=C1NCC(C(O)C2NC(=O)C(CC3CCC(OC4OC(CO)C(OC5OC6COC7(OC6C(O)C5O)C5CC6CC(C5)CC7C6)C(O)C4O)CC3)NC(=O)C(CC3CCCCC3)NC(=O)CNC(=O)C(CO)NC(=O)C(C(O)C3CNC(=N)N3C3OC(CO)C(O)C(O)C3O)NC2=O)N1 (single isomer, unassigned) [Example 222]",
    "test_result": ">64 µg/mL"
  }
]

Reference source for all entries: patent US6914045B2
